Kd values for the binders below.
target-desc: T1, human Complement Factor D (CFD), purified from human serum (human, UniProt P00746 26-253)
T1 construct: serum purified (CompTech A136); also called serum purified CFD; hCFD-Comptech
T1 sequence (P00746 26-253): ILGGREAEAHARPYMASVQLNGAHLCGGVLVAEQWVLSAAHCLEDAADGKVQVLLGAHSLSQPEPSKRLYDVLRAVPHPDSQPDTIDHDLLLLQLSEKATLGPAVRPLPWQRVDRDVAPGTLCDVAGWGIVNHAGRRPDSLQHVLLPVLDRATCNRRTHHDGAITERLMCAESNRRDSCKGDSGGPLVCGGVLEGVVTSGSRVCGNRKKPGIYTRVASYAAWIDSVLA
assay: SPR MX96, mAbs amine-coupled, CFD injected
Returns: string containing the numeric result and its unit.

Value lookup for Kd; key = KCD013 (antibody, V domains shown) VH: EVQLQQSGAELVKPGASVKLSCTASGFKIKDTYMHWVKERPDQGLEWIGRIDPANGNTKYDPKFQGKATITADTSSNTAYLQLSSLTSEDTAVYYCANAMDYWGQGTSVTVSS VL: QIILTQSPAIMSASPGEKVTMTCSASSSVSNMYWYQQKPGSSPRLLIYDTSNLASGVPVRFSGSGSGASYSLTISRMEAEDAATYYCQQWSSYPWTFGGGTKLEIK
7.32 nM

For the binder shown here, KCD102 (antibody, V domains shown) VH: QVQLQQPGAELVRPGTSVKLSCKASGYTFTSYWMHWVKQRPGQGLEWIGVIDPSDSYTNYNQKFKGKATLTVDTSSSTAYMQLSSLTSEDSAVYYCARNGYDGSMDYWGQGTSVTVSS VL: EIQMTQTTSSLSASLGDRVTISCRASQDISNYLNWYQQKPDGTVKLLIYYPSRLHSGVPSRFSGSGSGTDYSLTISNLEQEDFATYFCQQGNTLPYTFGGGTKLEIK , give the reported Kd.
3.56 nM

Recorded Kd for KCD062 (antibody, V domains shown) VH: EVKLVESGGGLVQPGGSLKLSCAASGFTFSTYIMSWVRQTPEKRLEWVAYITSGGSSTYYPDTVKGRFTISRDNAKSTLYLQMSSLKSEDTAMYYCARHAHFYAMDYWGQGTSVTVSS VL: DIQMTQSPSSLSASLGGKVTITCKASQDINKYIAWYQHKPGKGPRLLIHYTSTLQPGIPSRFSGSGSGRDYSFSISNLEPEDIATYYCLQYDNLLYTFGGGTKLEIK , please?
24 nM
